- experimental-target: human mGlu2 receptor (Homo sapiens, UniProt Q14416)
- Sequence (Q14416 19-872): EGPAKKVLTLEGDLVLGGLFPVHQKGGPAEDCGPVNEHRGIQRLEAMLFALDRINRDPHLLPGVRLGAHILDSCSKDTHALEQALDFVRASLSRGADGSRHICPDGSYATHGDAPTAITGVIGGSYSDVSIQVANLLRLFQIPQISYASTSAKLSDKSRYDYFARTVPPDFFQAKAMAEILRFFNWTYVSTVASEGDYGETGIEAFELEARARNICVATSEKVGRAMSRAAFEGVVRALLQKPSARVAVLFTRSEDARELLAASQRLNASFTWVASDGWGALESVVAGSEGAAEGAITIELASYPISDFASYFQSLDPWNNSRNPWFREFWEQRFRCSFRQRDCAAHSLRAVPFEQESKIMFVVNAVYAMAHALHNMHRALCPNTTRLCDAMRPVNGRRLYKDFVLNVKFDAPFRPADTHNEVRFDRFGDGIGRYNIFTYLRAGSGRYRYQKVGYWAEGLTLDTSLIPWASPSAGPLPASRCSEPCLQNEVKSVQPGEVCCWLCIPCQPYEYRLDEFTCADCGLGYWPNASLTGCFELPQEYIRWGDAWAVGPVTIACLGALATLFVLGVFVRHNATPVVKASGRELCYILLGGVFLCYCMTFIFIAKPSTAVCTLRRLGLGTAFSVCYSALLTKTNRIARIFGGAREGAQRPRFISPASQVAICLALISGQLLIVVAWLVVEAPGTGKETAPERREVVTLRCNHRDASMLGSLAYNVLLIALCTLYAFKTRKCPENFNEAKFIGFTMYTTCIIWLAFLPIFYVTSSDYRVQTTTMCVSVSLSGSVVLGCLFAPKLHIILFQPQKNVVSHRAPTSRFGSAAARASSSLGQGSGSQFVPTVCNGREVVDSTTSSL
- assay-method-text: [35S]GTPγS binding assay, mGluR2 negative allosteric modulation (membranes from CHO cells transfected with human mGlu2 receptor, glutamate ~EC80 60 μM);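 note: membranes preincubated 30 min at 30 °C with compound plus glutamate, then [35S]GTPγS (0.1 nM) incorporation measured over another 30 min at 30 °C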
- run-parameters: GTPγS - hmGluR2 anGT pIC50, membranes with human mGlu2 receptor, glutamate ~EC80 (60 μM); pIC50 = -log IC50 (M)
recorded-endpoint: IC50 (M)

Recorded IC50, per entry:
C[C@H]1CN(c2ccc(Cl)c(Cl)c2)C(=O)c2c(C(=O)Nc3ccccn3)cnn21 [compound 25]: 3.09e-09
C[C@H]1CN(c2ccc(C(F)(F)F)cc2)C(=O)c2c(C(=O)Nc3ccnc(CO)c3)cnn21 [compound 150]: 8.13e-09
C[C@H]1CN(c2ccc(C(F)(F)F)cc2)C(=O)c2c(C(=O)NC3CCC3)cnn21 [compound 71]: 7.08e-08
C[C@H]1CN(c2ccc(C(F)(F)F)cc2)C(=O)c2c(C(=O)NC(C)(C)C)cnn21 [compound 68]: 2.63e-07

I: C[C@H]1CN(c2ccc(C(F)(F)F)c(F)c2)C(=O)c2c(C(=O)Nc3ccccn3)cnn21 [compound 20]
II: Cc1cc(NC(=O)c2cnn3c2C(=O)N(c2ccc(Cl)c(OC(F)F)c2)C[C@@H]3C)ccn1 [compound 84]
III: C[C@H]1CN(c2ccc(C(F)(F)F)cc2)C(=O)c2c(C(=O)Nc3ncccn3)cnn21 [compound 103]
IV: C[C@H]1CN(c2ccc(C(F)(F)F)cc2)C(=O)c2c(C(=O)Nc3cnccn3)cnn21 [compound 100]
Task item: Order field: IC50 | Direction: descending (largest first) Sort and list the labels as requested.
Reply: III, I, II, IV
